Assayed system: T1, ZFP SBS#264 (synthetic)
T1 chain: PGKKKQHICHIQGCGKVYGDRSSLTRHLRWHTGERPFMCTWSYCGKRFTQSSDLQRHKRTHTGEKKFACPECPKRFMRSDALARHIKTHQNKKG
Run description: EMSA
Protocol conditions: tags: MBP fusion
Test readout: Kd (nM)

{"columns": ["Binder", "Test readout", "Result value"],
 "data": [
  ["GTGGCTGCC (dsDNA) DNA 1: GTGGCTGCC DNA 2: GGCAGCCAC", "Kd", 27]
]}
